Molecular target: ATX (Rattus norvegicus, UniProt Q64610)
Assay: Choline oxidase-coupled choline-release assay of LPC hydrolysis by ATX
Settings: 20:0 LPC, 150 μM LPC, 20 nM ATX
PROPERTY LABEL: IC50 (nM)
Field format: number, assumed nM, no unit text.

Request: Look up IC50 of C[C@H](CCC(=O)N1CCC(Oc2ccc([B-](F)(F)F)cc2)CC1)[C@H]1CC[C@H]2C3[C@@H](O)C[C@@H]4C[C@H](O)CC[C@]4(C)[C@H]3CC[C@]12C.[K+] (some centres unmarked) [Compound 22] and report it.
Result: 32

Let us examine a further case.
Request: Look up IC50 of C[C@H](CCC(=O)N1CCC(Oc2ccc(B(O)O)cc2)CC1)[C@H]1CC[C@H]2C3[C@@H](O)C[C@@H]4C[C@H](O)CC[C@]4(C)[C@H]3CC[C@]12C (some centres unmarked) [Compound 23] and report it.
Result: 33

meta.source: paper PMC9059126
